Biological target: TmoS (Ectopseudomonas mendocina, UniProt Q8KIY1)
Sequence (Q8KIY1 whole entry): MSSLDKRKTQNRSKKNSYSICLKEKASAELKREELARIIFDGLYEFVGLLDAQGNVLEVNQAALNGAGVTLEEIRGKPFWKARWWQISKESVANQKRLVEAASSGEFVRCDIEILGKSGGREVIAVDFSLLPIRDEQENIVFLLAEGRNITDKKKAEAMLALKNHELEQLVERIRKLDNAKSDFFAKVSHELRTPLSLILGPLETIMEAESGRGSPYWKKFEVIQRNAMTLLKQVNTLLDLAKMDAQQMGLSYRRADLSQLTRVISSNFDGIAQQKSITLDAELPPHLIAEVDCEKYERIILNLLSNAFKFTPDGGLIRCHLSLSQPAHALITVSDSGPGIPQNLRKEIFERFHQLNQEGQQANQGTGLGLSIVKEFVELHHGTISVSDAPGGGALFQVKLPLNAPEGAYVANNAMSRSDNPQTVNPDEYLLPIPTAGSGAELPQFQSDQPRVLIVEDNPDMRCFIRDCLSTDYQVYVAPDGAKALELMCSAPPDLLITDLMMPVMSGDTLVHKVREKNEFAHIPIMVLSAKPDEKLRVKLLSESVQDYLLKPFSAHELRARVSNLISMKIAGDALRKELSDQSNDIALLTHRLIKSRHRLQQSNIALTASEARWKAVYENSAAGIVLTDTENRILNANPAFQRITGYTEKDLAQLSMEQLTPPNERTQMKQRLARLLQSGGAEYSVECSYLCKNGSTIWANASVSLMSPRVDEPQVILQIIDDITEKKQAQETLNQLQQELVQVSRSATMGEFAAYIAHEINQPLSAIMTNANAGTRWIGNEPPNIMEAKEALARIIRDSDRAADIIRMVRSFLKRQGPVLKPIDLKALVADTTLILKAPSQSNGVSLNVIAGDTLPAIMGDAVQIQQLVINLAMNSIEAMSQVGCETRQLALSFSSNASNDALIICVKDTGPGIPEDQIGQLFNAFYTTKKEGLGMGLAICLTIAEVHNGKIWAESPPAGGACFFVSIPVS
Assay: Isothermal titration calorimetry of purified TmoS with effector molecules
Type: binding, Pseudomonas mendocina KR1
Conditions: ITC, TmoS
property.name: ΔH (kcal/mol)
Reply numerically in kcal/mol, unit not repeated.

Answered cases to consult:
Cc1ccccc1C	-8.9
Cc1ccccc1	-6.5

Recorded ΔH for Cc1ccc(C)c(C)c1 , please? -1.5

Same question, Cc1ccc(Cl)cc1 this time -2.7

Same question, c1ccccc1 this time -5.3

Same question, Cc1ccc(C)cc1 this time -3.4

Same question, O=[N+]([O-])c1ccccc1 this time -4.1

Same question, Cc1cccc(Cl)c1 this time -5.9

Same question, Clc1ccccc1 this time -6.9

Same question, CCc1ccccc1 this time -3.5

Same question, C=Cc1ccccc1 this time -4.8

Same question, Cc1ccccc1Cl this time -5.1

----------
Biological target: TmoS (Ectopseudomonas mendocina, UniProt Q8KIY1)
Experiment: Isothermal titration calorimetry of purified TmoS with effector molecules
Format: binding, Pseudomonas mendocina KR1
Conditions: KD, ITC, typically 10 µM TmoS titrated with 500 µM effector, pH 7.5
property.name: Kd
A complete answer gives the number followed by the unit.

Recorded Kd for CCc1ccccc1 , please? 1560 nM

----------
Target: TmoS (Ectopseudomonas mendocina, UniProt Q8KIY1)
Assay: Isothermal titration calorimetry of purified TmoS with effector molecules
Format: binding, Pseudomonas mendocina KR1
Rule: Kd below 500 nM gives T, anything at or above gives F.

The examples below pair each entry with its known result.
C=Cc1ccccc1	F
Cc1cccc(Cl)c1	F
Cc1cccc(C)c1	F
Cc1ccc(C)cc1	T
Clc1ccccc1	F
Cc1ccc(C)c(C)c1	F
c1ccccc1	T
Cc1ccccc1C	T

Would you kindly look at the next entry?
Answer whether the compound O=[N+]([O-])c1ccccc1 has Kd strictly less than 500 nM T

----------
Quick reference: TΔS of the listed items.
Target: TmoS (Ectopseudomonas mendocina)
Assay: Isothermal titration calorimetry of purified TmoS with effector molecules
Type: binding, Pseudomonas mendocina KR1
Conditions: ITC, TmoS
Reply numerically in kcal/mol, unit not repeated.

Answered cases to consult:
c1ccccc1 [Benzene]	3.6
Cc1ccccc1 [Toluene]	2.4
CCc1ccccc1 [Ethylbenzene]	4.1
Cc1ccc(C)cc1 [p‐xylene]	4.9
Cc1cccc(Cl)c1 [m‐Chlorotoluene]	1.5
Cc1ccccc1Cl [o‐Chlorotoluene]	2.4

Given the entry Cc1ccc(C)c(C)c1 [1,2,4 Trimethylbenzene] , what TΔS was observed with TmoS (Ectopseudomonas mendocina)? 5.6

Same question, C=Cc1ccccc1 [Styrene] this time 3.3

Same question, Cc1ccc(Cl)cc1 [p‐Chlorotoluene] this time 5.3

Same question, O=[N+]([O-])c1ccccc1 [Nitrobenzene] this time 4.5

Same question, Cc1cccc(C)c1 [m‐xylene] this time 1.1

----------
Target: TmoS (Ectopseudomonas mendocina)
Experiment: Isothermal titration calorimetry of purified TmoS with effector molecules
Assay type: binding, Pseudomonas mendocina KR1
Conditions: ITC, typically 10 µM TmoS titrated with 500 µM effector, pH 7.5
property.name: pKd
Note: pKd values are expressed as the negative base-10 logarithm of concentration in M.

Recorded pKd for Cc1ccccc1Cl , please? 5.67
